System: HCT-15
One threshold, 9 µM, splits the recorded GI50 values: lower ones are Satisfied, equal or higher ones are Not satisfied.

Lab note: GI50 threshold 9 µM. Does this molecule come in strictly under it? C1CN2N3CCCC23C1 (stereo unspecified)
Not satisfied

Lab note: GI50 threshold 9 µM. Does this molecule come in strictly under it? COc1cc(CO)c(CC(=O)NCCCc2ccccc2)cc1OC
Not satisfied

Lab note: GI50 threshold 9 µM. Does this molecule come in strictly under it? CC(C)=CCN1c2ccc(Cl)cc2NC(=O)CC1C (stereo unspecified)
Not satisfied

Lab note: GI50 threshold 9 µM. Does this molecule come in strictly under it? Nc1nc(Cl)cc(NCCCCCCCCCCNc2cc(Cl)nc(N)n2)n1
Satisfied

Lab note: GI50 threshold 9 µM. Does this molecule come in strictly under it? COc1ccc(OCC(C)(C)O)cc1
Not satisfied

Lab note: GI50 threshold 9 µM. Does this molecule come in strictly under it? COc1cc2ccc1OCc1cccc(n1)COc1ccc(cc1OC)/C=N\c1ccc(cc1)/N=C\2
Not satisfied

Lab note: GI50 threshold 9 µM. Does this molecule come in strictly under it? COP(C)(=O)/C(Cc1ccccc1)=N\O (stereo unspecified)
Not satisfied

Lab note: GI50 threshold 9 µM. Does this molecule come in strictly under it? C[C@@]1(Cc2ccccc2)C(=O)N2[C@@H](CO)C(c3ccccc3)O[C@]2(C)c2ccccc21 (stereo partly specified)
Not satisfied

Lab note: GI50 threshold 9 µM. Does this molecule come in strictly under it? CCOC(=O)N1CCC(N[C@@H]2c3cc4c(cc3[C@@H](c3cc(OC)c(O)c(OC)c3)[C@H]3C(=O)OC[C@@H]32)OCO4)CC1
Satisfied

Lab note: GI50 threshold 9 µM. Does this molecule come in strictly under it? CCN(CCO)C(=O)C1(c2ccccc2)CCCCC1
Not satisfied

Lab note: GI50 threshold 9 µM. Does this molecule come in strictly under it? COc1ccc(/C=N/NC(=O)CSc2nc(-c3ccccc3)c(-c3ccccc3)[nH]2)cc1OC
Not satisfied

Lab note: GI50 threshold 9 µM. Does this molecule come in strictly under it? COC(=O)C1=C(C)NC(C)=C(C(=O)OC)C1c1cccc(NO)c1
Not satisfied

Lab note: GI50 threshold 9 µM. Does this molecule come in strictly under it? CN(C)Cc1cc(/N=N/c2ccc(Cl)cc2)ccc1OC(=O)c1ccccc1
Not satisfied

Lab note: GI50 threshold 9 µM. Does this molecule come in strictly under it? COc1ccc(C(C2C(=O)N(C)C(=O)N(C)C2=O)C(F)(F)C(=O)N(C)C)cc1 (stereo unspecified)
Not satisfied

Lab note: GI50 threshold 9 µM. Does this molecule come in strictly under it? CS(=O)(=O)c1n[nH]c2nc(O)nc(O)c12
Not satisfied

Lab note: GI50 threshold 9 µM. Does this molecule come in strictly under it? COc1ccc2c(c1)CCCN1Cc3ccccc3CC21 (stereo unspecified)
Not satisfied

Lab note: GI50 threshold 9 µM. Does this molecule come in strictly under it? NC(Cc1ccnnc1)C(=O)O (stereo unspecified)
Not satisfied

Lab note: GI50 threshold 9 µM. Does this molecule come in strictly under it? C=C[C@H]1CN2CCc3c([nH]c4c([C@@H]5CCCN5C)c(O)ccc34)[C@@H]2C[C@@H]1C[C@H]1c2[nH]c3ccccc3c2CCN1C
Satisfied

Where do these numbers come from? They come from ChEMBL document CHEMBL1201862.
